Cited source for all entries: PubChem BioAssay AID2060342

# System: 171881-019-R-J1-PDC multicell spheroid viability
# method-notes: Anticancer human tumor 171881-019-R-J1-PDC patient-derived invasive breast carcinoma cell line growth inhibition [IpAb]; active means viability on the fitted dose curve at most 10% of control; inactive means the rest
# condition-details: second compound 1 µM; first compound 0.949 µM
Outcomes: 1 (yes) (active), 0 (no) (inactive)

* Cn1cnc2c(F)c(Nc3ccc(Br)cc3Cl)c(C(=O)NOCCO)cc21 + CCN1CCN(Cc2ccc(Nc3ncc(F)c(-c4cc(F)c5nc(C)n(C(C)C)c5c4)n3)nc2)CC1 | 0 (no)
* CC(C)(C)c1cnc(CSc2cnc(NC(=O)C3CCNCC3)s2)o1 + CC(C)NCC(C(=O)N1CCN(c2ncnc3c2C(C)CC3O)CC1)c1ccc(Cl)cc1 | 1 (yes)
* Cn1cnc2c(F)c(Nc3ccc(Br)cc3Cl)c(C(=O)NOCCO)cc21 + CC(C)NCC(C(=O)N1CCN(c2ncnc3c2C(C)CC3O)CC1)c1ccc(Cl)cc1 | 1 (yes)
* CC(C)(C)c1cnc(CSc2cnc(NC(=O)C3CCNCC3)s2)o1 + CCN1CCN(Cc2ccc(Nc3ncc(F)c(-c4cc(F)c5nc(C)n(C(C)C)c5c4)n3)nc2)CC1 | 1 (yes)

---

The entries below are paired with their reported viability, T/C.
# System: 171881-019-R-J1-PDC multicell spheroid viability
# method-notes: Anticancer human tumor 171881-019-R-J1-PDC cell line growth inhibition [IpAb];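 further: spheroids exposed to the agents for seven days before readout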
# condition-details: second compound 0.316 µM; first compound 10 µM; active compounds read low
property-label: viability, T/C

• Cn1nccc1Nc1nccc(-c2ccn(C(CO)c3ccc(Cl)c(F)c3)c(=O)c2)n1 (centres undefined) + CC(C)NCC(C(=O)N1CCN(c2ncnc3c2C(C)CC3O)CC1)c1ccc(Cl)cc1 = 3.81%
• Cc1nc(NC(=O)N2CCCC2C(N)=O)sc1-c1ccnc(C(C)(C)C(F)(F)F)c1 (centres undefined) + CCN1CCN(Cc2ccc(Nc3ncc(F)c(-c4cc(F)c5nc(C)n(C(C)C)c5c4)n3)nc2)CC1 = 4.63%
• CC1(C)CCC(CN2CCN(c3ccc(C(=O)NS(=O)(=O)c4ccc(NCC5CCOCC5)c([N+](=O)[O-])c4)c(Oc4cnc5[nH]ccc5c4)c3)CC2)=C(c2ccc(Cl)cc2)C1 + CC(C)NCC(C(=O)N1CCN(c2ncnc3c2C(C)CC3O)CC1)c1ccc(Cl)cc1 = 14.8%
• Cc1nc(NC(=O)N2CCCC2C(N)=O)sc1-c1ccnc(C(C)(C)C(F)(F)F)c1 (centres undefined) + CC(C)NCC(C(=O)N1CCN(c2ncnc3c2C(C)CC3O)CC1)c1ccc(Cl)cc1 = 1.29%
• C=CC(=O)N1CCN(c2nc(=O)n(-c3c(C)ccnc3C(C)C)c3nc(-c4c(O)cccc4F)c(F)cc23)C(C)C1 (centres undefined) + CCN1CCN(Cc2ccc(Nc3ncc(F)c(-c4cc(F)c5nc(C)n(C(C)C)c5c4)n3)nc2)CC1 = 59.7%
• Cn1ncc(Cl)c1-c1cc(C(=O)NC(CN)Cc2cccc(F)c2)sc1Cl (centres undefined) + CCN1CCN(Cc2ccc(Nc3ncc(F)c(-c4cc(F)c5nc(C)n(C(C)C)c5c4)n3)nc2)CC1 = 0.34%
• CC1(C)CCC(CN2CCN(c3ccc(C(=O)NS(=O)(=O)c4ccc(NCC5CCOCC5)c([N+](=O)[O-])c4)c(Oc4cnc5[nH]ccc5c4)c3)CC2)=C(c2ccc(Cl)cc2)C1 + CCN1CCN(Cc2ccc(Nc3ncc(F)c(-c4cc(F)c5nc(C)n(C(C)C)c5c4)n3)nc2)CC1 = 21.1%
• C=CCn1c(=O)c2cnc(Nc3ccc(N4CCN(C)CC4)cc3)nc2n1-c1cccc(C(C)(C)O)n1 + CCN1CCN(Cc2ccc(Nc3ncc(F)c(-c4cc(F)c5nc(C)n(C(C)C)c5c4)n3)nc2)CC1 = 47.7%
• C=CCn1c(=O)c2cnc(Nc3ccc(N4CCN(C)CC4)cc3)nc2n1-c1cccc(C(C)(C)O)n1 + CC(C)NCC(C(=O)N1CCN(c2ncnc3c2C(C)CC3O)CC1)c1ccc(Cl)cc1 = 16.4%
